Origin of values: patent US6720423B2

study-system: RARγ (Homo sapiens)
Sequence (P13631 whole entry, species assumed): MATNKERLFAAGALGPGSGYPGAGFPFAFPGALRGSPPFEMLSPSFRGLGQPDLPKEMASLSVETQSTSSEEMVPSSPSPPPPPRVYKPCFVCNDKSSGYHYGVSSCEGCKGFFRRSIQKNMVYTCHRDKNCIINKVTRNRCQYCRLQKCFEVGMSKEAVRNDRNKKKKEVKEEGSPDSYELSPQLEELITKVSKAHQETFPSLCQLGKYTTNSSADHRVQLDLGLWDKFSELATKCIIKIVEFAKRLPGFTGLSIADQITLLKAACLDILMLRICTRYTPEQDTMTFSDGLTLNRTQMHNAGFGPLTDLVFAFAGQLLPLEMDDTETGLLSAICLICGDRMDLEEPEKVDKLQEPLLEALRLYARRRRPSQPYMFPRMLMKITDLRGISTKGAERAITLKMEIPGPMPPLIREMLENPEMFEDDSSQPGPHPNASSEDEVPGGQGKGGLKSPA
assay-protocol: ligand binding assay, RARγ
condition-description: second entry of cell, read-out: RAR Bind. Ki (nM) γ
metric-name: Ki

# compound, value
records = [
    ("CC(/C=C/[C@@H]1C[C@]1(C)c1cc(-c2ccccc2)c2c(c1)C(C)(C)CO2)=C\\C(=O)O", "> 5260 nM"),
    ("CCCCC(O)CCc1cc([C@@]2(C)C[C@H]2/C=C/C(C)=C/C(=O)O)cc2c1OCC2(C)C (stereo partly drawn)", "> 10000 nM"),
    ("CC(/C=C/[C@@H]1C[C@]1(C)c1cc(-c2ccccc2C)c2c(c1)C(C)(C)CO2)=C\\C(=O)O", "> 10000 nM"),
]

Respectfully, I request Ki for each entry included below.
1. CCCCCCCc1ccccc1-c1cc([C@@]2(C)C[C@H]2/C=C/C(C)=C/C(=O)O)cc2c1OCC2(C)C
2. CC(/C=C/[C@@H]1C[C@]1(C)c1cc(CC2CCCCC2)c2c(c1)C(C)(C)CO2)=C\C(=O)O
3. CC(/C=C/[C@@H]1C[C@]1(C)c1cc(Cc2ccccc2)c2c(c1)C(C)(C)CO2)=C\C(=O)O
4. CC(/C=C/[C@@H]1C[C@]1(C)c1cc(-c2ccc(F)cc2)c2c(c1)C(C)(C)CO2)=C\C(=O)O
5. CC(/C=C/[C@@H]1C[C@]1(C)c1cc(C(C)C)c2c(c1)C(C)(C)CO2)=C\C(=O)O

1. 9540 nM
2. 12000 nM
3. 6650 nM
4. 25000 nM
5. 7510 nM

Observed Ki on RARγ (Homo sapiens), entry CC(/C=C/[C@@H]1C[C@]1(C)c1cc(CC(C)(C)C)c2c(c1)C(C)(C)CO2)=C\C(=O)O , equals 8910 nM

----------
study-system: UniProtKB P28705
assay-protocol: receptor transactivation assay, RXRγ
Assay type: cell-based
Design: RXR Trans; other: RXRγ; first entry of cell
condition-description: parenthesised number, not defined in the patent
Assign 1 to entries whose RXR Trans. γ, number in parentheses after EC50 meets or exceeds 100; assign -1 to the rest.

Solved cases below.
# line-notation, class-name
records = [
    ("CC(/C=C/[C@@H]1C[C@]1(C)c1cc(-c2ccc(F)cc2)c2c(c1)C(C)(C)CO2)=C\\C(=O)O", 1),
    ("CC(/C=C/[C@@H]1C[C@]1(C)c1cc(Cc2ccccc2)c2c(c1)C(C)(C)CO2)=C\\C(=O)O", 1),
    ("CC(/C=C/[C@@H]1C[C@]1(C)c1cc(C)c2c(c1)C(C)(C)CO2)=C\\C(=O)O", 1),
    ("CC(/C=C/[C@@H]1C[C@]1(C)c1cc(-c2ccccc2C)c2c(c1)C(C)(C)CO2)=C\\C(=O)O", 1),
    ("CC(/C=C/[C@@H]1C[C@@H]1c1ccc2c(c1)C(C)(C)CO2)=C\\C(=O)O", 1),
    ("CCCCCCCc1ccccc1-c1cc([C@@]2(C)C[C@H]2/C=C/C(C)=C/C(=O)O)cc2c1OCC2(C)C", -1),
]

Hi team, for CCCCC(=O)CCc1cc([C@@]2(C)C[C@H]2/C=C/C(C)=C/C(=O)O)cc2c1OCC2(C)C , is the recorded RXR Trans. γ, number in parentheses after EC50 at or above 100?
-1

Hi team, for COc1ccc(-c2cc([C@@]3(C)C[C@H]3/C=C/C(C)=C/C(=O)O)cc3c2OCC3(C)C)cc1 , is the recorded RXR Trans. γ, number in parentheses after EC50 at or above 100?
1
